Provenance of the data: paper PMC12102759

Exercise: state measured screen value for each of the variants provided.
B1: PEX5 peptide 108-123 (Peroxisomal targeting signal 1 receptor), 16-mer library wild type / PEX14 Pex14 (PEX14 PEX14, residues 16-84) (parent)
chain 1: GVADLALSENWAQEFL
chain 2: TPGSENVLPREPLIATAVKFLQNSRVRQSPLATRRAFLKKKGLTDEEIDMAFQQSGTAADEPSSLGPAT

Variants of: B1
Assay: proteomic peptide phage display deep mutational scan (ProP-PD DMS): M13 P8 16-mer library selected against immobilised GST-tagged bait for four days (rounds), NGS of the eluted pools per day and pseudo-replica
Details: with PEX14 Pex14 (PEX14 PEX14, residues 16-84); bait immobilised on MaxiSorp plates (10 µg), library pre-cleared on GST, 2 h binding at 4 °C, five washes; one round per day, days 1-4; value from days 2 and 3; scale: average fractional NGS count over selection days 2 and 3

# return screen value for each item in the list
1. chain 1 L16F
2. chain 1 S8E
3. chain 1 A6Q
4. chain 1 N10G
5. chain 1 A3Q

### Response
0
0.000967
0.000383
0
0.000248
